- experimentalTarget: VCP (UniProt P55072)
- Sequence (P55072 2-806): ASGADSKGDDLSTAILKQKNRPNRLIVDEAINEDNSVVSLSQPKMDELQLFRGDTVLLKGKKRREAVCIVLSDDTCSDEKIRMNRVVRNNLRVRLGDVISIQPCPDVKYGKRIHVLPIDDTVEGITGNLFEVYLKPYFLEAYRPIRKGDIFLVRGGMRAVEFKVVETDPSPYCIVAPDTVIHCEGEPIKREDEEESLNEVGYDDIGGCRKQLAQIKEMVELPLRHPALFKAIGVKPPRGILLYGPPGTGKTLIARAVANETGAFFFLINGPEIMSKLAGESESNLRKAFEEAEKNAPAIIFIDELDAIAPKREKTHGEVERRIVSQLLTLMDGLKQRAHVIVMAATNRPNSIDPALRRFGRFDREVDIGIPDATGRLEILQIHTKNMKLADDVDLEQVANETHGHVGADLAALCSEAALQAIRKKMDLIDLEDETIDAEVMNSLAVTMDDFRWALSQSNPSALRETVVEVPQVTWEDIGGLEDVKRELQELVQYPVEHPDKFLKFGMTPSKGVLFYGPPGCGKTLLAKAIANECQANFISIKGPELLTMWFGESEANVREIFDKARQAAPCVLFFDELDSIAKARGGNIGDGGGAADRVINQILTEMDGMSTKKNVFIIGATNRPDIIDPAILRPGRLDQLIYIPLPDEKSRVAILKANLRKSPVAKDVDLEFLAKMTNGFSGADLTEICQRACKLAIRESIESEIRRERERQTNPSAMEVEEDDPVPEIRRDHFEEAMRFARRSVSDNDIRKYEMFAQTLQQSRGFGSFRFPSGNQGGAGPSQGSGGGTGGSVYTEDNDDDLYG
- procedureDetails: BLI, VCP immobilized on anti-HIS sensor, analyte in Tris pH 8.4, multivalent
Where no end group is shown, it is not given here.
propertyName: pKd
// returns pKd (minus log10 of molar concentration), number only

Let me know recorded pKd for HVLVMSATRR (not fully specified (N-terminus); also: multivalent polymer conjugate) [P1] , thanks. 7.04
